- target entity: T1, recombinant canine Nerve Growth Factor (Canis lupus familiaris NGF) (canine (Canis lupus familiaris), UniProt Q29074 110-229 (pig entry), limits assumed)
- T1 construct: also called canine NGF; Dog NGF
- T1 chain: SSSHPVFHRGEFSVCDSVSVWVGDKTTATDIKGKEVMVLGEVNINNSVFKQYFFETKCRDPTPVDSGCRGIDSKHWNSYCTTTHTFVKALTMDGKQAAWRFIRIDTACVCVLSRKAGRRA
- assay overview: SPR, 1:1 binding fit, canine NGF
pKd: −log10 of the molar value.
Binary classification by pKd, with 7 as an inclusive lower bound for true (1); all other cases are false (0).

Study these solved cases before continuing.
1. SSM-36 (LC SSM135LCR53S, HC SSM135HCG31E) (antibody, V domains shown, Both chains are built on the LTM135 template (HC G103A, LC H32N)) VH: EVQLVESGGDLARPGGSLKLSCVVSGFSLIEYDINWVRQAPGKGLQWVTMIWGDGTTDYNSALKSRFTVSRDNAMNTVYLQMNSLRVEDTAVYYCARGGYYYATSYYFDYWGQGTLVTVSS VL: DIVMTQTPLSLSVSPGETASISCRASQDISNNLNWFRQKPGQSPQRLIYYISSFHSGVPDRFSGSGSGTDFTLRISRVEADDTGVYYCQQSKTLPYTFGAGTKLEIK: true (1)
2. SSM-3 (LC E3M, HC SSMwtHCG31E) (antibody, V domains shown) VH: EVQLVESGGDLARPGGSLKLSCVVSGFSLIEYDINWVRQAPGKGLQWVTMIWGDGTTDYNSALKSRFTVSRDNAMNTVYLQMNSLRVEDTAVYYCARGGYYYGTSYYFDYWGQGTLVTVSS VL: DIVMTQTPLSLSVSPGETASISCRASQDISNHLNWFRQKPGQSPQRLIYYISRFHSGVPDRFSGSGSGTDFTLRISRVEADDTGVYYCQQSKTLPYTFGAGTKLEIK: true (1)
3. SSM-2 (LC E3M, HC SSMwtHCG31Q) (antibody, V domains shown, IgG expressed in HEK293; constant regions are not restated) VH: EVQLVESGGDLARPGGSLKLSCVVSGFSLIQYDINWVRQAPGKGLQWVTMIWGDGTTDYNSALKSRFTVSRDNAMNTVYLQMNSLRVEDTAVYYCARGGYYYGTSYYFDYWGQGTLVTVSS VL: DIVMTQTPLSLSVSPGETASISCRASQDISNHLNWFRQKPGQSPQRLIYYISRFHSGVPDRFSGSGSGTDFTLRISRVEADDTGVYYCQQSKTLPYTFGAGTKLEIK: true (1)

We now examine a further binder.
Does pKd meet or surpass 7 for SSM-22 (LC SSMwtLCR53S, HC SSMwtHCD54T, G31E) (antibody, V domains shown) VH: EVQLVESGGDLARPGGSLKLSCVVSGFSLIEYDINWVRQAPGKGLQWVTMIWGTGTTDYNSALKSRFTVSRDNAMNTVYLQMNSLRVEDTAVYYCARGGYYYGTSYYFDYWGQGTLVTVSS VL: DIVMTQTPLSLSVSPGETASISCRASQDISNHLNWFRQKPGQSPQRLIYYISSFHSGVPDRFSGSGSGTDFTLRISRVEADDTGVYYCQQSKTLPYTFGAGTKLEIK ? false (0)
